target: p-EGFR L858R (BaF3-L858R cells) (Homo sapiens, UniProt P00533, L858R); construct: host or cells: BaF3; test: Cell p-EGFR inhibition assay, HTRF, BaF3-L858R cells; assay type: cell-based; conditions: 16 h treatment, pEGFR inhibition
Sequence (P00533 25-1210 L858R): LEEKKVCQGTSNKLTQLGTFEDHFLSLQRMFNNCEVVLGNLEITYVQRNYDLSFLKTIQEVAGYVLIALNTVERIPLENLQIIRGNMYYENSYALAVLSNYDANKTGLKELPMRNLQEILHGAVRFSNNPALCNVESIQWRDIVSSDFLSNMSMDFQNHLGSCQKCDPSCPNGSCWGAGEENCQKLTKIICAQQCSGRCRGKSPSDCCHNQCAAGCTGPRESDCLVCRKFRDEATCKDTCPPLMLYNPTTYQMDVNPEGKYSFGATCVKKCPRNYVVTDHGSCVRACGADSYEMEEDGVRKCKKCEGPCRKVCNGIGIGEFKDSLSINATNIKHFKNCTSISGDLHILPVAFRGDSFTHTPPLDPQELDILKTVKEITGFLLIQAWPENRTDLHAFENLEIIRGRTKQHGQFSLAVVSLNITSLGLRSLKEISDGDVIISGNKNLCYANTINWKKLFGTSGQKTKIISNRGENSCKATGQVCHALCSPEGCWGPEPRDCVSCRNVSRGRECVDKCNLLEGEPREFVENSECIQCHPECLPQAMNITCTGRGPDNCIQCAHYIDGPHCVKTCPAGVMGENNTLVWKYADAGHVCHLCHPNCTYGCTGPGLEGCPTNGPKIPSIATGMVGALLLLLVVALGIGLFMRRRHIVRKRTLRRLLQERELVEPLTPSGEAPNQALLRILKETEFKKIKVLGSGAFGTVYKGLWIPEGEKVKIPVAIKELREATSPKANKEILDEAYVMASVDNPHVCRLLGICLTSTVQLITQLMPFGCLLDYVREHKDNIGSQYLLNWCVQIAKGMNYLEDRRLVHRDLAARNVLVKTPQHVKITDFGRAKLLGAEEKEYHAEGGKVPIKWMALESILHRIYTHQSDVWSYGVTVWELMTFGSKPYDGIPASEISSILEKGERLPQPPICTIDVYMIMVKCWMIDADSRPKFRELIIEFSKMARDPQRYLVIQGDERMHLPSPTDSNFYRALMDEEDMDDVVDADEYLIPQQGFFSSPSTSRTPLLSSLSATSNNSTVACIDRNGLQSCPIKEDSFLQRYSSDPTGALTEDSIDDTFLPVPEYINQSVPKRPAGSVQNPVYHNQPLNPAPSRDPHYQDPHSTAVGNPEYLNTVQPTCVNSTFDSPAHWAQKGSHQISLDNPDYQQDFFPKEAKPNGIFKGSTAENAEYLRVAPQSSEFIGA
Entries and their IC50
The number alone won't do; follow it with the unit.

{"columns": ["Compound", "Attribute measured", "Assay result"],
 "data": [
  ["Cc1cc2cc(n1)-c1cnn(C)c1OC[C@H]1CCC(C1)CN1/C(=N/C2=O)Nc2ccc(N3CC4(CCN(C5CCN(c6cc(F)c([C@H]7CCC(=O)NC7=O)c(F)c6)CC5)CC4)C3)cc21 [Example 125]", "IC50", "20.7 nM"],
  ["Cc1cc2cc(n1)-c1cnn(C)c1OC[C@H]1CCC(C1)CN1/C(=N/C2=O)Nc2ccc(N3CC4(CCN(C5CN(c6cc(F)c([C@H]7CCC(=O)NC7=O)c(F)c6)C5)CC4)C3)cc21 [Example 126]", "IC50", "13.3 nM"],
  ["Cc1cc2cc(n1)-c1cnn(C)c1OC[C@H]1CCC(C1)CN1/C(=N/C2=O)Nc2ccc(N3CCN([C@H]4CCN(c5ccc(C6CCC(=O)NC6=O)nc5C)CC4(F)F)CC3)cc21 (stereo partly shown) [Example 83]", "IC50", "18 nM"],
  ["COC[C@@H]1CN(c2ccc3c(c2)N2C[C@@H]4CCC(COc5c(c(C)nn5C)-c5cc(cc(C)n5)C(=O)/N=C/2N3)C4)CCN1C1CN(C2CCN(c3cc(F)c([C@H]4CCC(=O)NC4=O)c(F)c3)CC2)C1 [Example 121]", "IC50", "6 nM"]
]}

Hello, I am looking for reported IC50 with p-EGFR L858R (BaF3-L858R cells) (Homo sapiens, UniProt P00533, L858R) for COC[C@H]1CN(c2ccc3c(c2)N2C[C@@H]4CC[C@H](COc5c(c(C)nn5C)-c5cc(cc(C)n5)C(=O)/N=C/2N3)C4)CCN1C1CCN(c2ccc(NC3CCC(=O)NC3=O)cc2C)CC1 (stereo partly shown) [Example 207] . Could you help?
1.5 nM

Find IC50 (p-EGFR L858R (BaF3-L858R cells) (Homo sapiens, UniProt P00533, L858R)) for the entry Cc1cc2cc(n1)-c1cnn(C)c1OC[C@H]1CCC(C1)CN1/C(=N/C2=O)Nc2ccc(N3CCN(C4CCN(c5ccc(NC6CCC(=O)NC6=O)cc5C)CC4)CC3)cc21 (stereo partly shown) [Example 123]
16.3 nM

Lookup: IC50 / p-EGFR L858R (BaF3-L858R cells) (Homo sapiens, UniProt P00533, L858R) / COC[C@H]1CN(c2ccc3c(c2)N2C[C@@H]4CC[C@H](COc5c(c(C)nn5C)-c5cc(cc(C)n5)C(=O)/N=C/2N3)C4)CCN1C1CN(C2CCN(c3cc(F)c([C@H]4CCC(=O)NC4=O)c(F)c3)CC2)C1 [Example 206]
1.17 nM

* * *

Molecular target: EGFR-L858R/C797S (H1975-clone #8 cells) (Homo sapiens, UniProt P00533, C797S/L858R)
Construct: expressed in transfected cells; host or cells: H1975 (endogenous EGFR knocked out, clone #8)
Sequence (P00533 25-1210 C797S/L858R): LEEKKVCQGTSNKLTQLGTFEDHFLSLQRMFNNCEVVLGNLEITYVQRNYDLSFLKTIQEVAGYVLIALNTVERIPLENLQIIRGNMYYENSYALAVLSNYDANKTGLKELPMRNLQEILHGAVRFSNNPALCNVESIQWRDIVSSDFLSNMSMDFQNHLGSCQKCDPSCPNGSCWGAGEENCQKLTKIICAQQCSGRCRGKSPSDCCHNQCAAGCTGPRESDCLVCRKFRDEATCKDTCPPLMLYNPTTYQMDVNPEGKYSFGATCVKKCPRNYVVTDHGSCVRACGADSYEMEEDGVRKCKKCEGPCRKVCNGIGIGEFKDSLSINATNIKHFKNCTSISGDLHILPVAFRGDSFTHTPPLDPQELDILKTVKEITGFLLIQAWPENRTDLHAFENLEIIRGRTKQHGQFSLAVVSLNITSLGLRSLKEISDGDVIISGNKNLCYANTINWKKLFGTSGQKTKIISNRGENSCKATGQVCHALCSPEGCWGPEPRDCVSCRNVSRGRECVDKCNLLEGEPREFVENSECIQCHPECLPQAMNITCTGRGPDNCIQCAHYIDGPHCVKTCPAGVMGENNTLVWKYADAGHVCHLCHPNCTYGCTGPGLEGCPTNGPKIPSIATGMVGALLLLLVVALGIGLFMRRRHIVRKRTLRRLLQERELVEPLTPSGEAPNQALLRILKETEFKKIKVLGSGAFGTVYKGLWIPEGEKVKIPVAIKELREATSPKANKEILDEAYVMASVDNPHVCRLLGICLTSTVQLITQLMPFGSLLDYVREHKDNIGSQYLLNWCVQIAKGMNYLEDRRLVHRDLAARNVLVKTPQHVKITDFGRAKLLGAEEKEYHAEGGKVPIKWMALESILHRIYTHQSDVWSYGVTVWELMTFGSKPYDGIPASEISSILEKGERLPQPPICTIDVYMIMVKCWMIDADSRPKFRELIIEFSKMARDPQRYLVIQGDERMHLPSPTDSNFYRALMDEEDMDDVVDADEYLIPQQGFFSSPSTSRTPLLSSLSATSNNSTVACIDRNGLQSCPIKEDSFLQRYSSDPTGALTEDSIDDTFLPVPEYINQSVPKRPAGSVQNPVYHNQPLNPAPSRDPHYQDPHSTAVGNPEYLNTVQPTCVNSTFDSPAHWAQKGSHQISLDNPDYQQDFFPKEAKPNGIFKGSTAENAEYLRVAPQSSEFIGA
Test: Cell degradation of EGFR, HTRF assay, H1975-clone#8 (L858R/C797S) cells
Format: cell-based
Conditions: 16 h treatment, maximum percentage of degradation
Protocol: The EGFR over-expressed cells then underwent knockout, in which the EGFR targeting sgRNA was designed to only target the endogenous EGFR copies and preserve the exogenous EGFR copies. Followed by the knockout, the edited H1975 cells were seeded in 96 well plates at the concentration of […], cultured for about 2 weeks to allow single clones formation. […] High control=Cell group with added DMSO and without compound, indicating microplate readings without EGFR degradation; […]
Attribute measured: Dmax (%)
Only the number, expressed in %, is required.

{"columns": ["Compound", "Assay result"],
 "data": [
  ["Cc1cc2cc(n1)-c1cnn(C)c1OC[C@H]1CC[C@H](C1)CN1/C(=N/C2=O)Nc2ccc(N3CCN(C4CCN(c5cc(F)c([C@H]6CCC(=O)NC6=O)c(F)c5)CC4)CC34COC4)cc21 [Example 10]", 66.8]
]}

Test system EGFR-L858R/C797S (H1975-clone #8 cells) (Homo sapiens, UniProt P00533, C797S/L858R); read-out Dmax; what value for Cc1cc2cc(n1)-c1cnn(C)c1OC[C@H]1CCC(C1)CN1/C(=N/C2=O)Nc2cc(F)c(N3CCN(C4CCN(c5cnc(C6CCC(=O)NC6=O)cc5C)CC4)CC3)cc21 (stereo partly drawn) [Example 100] ?
87.3

From: patent US20240425523A1
